System: BT-549 breast
Test: NCI-60 one-dose screen, 48 h
Conditions: 10 µM unless noted
Procedure: Growth inhibition of the BT-549 human tumor cell line is measured as a screen for anti-cancer activity. Cells are grown in 96 well plates and exposed to the test compound for 48 hours. Compounds are tested at a single concentration, which is 10^-5 M for most compounds. The reported endpoint is percent growth (GI% or GIPRCNT), where numbers from 0 - 100% represent growth inhibition, and numbers from -100% - 0 represent cell death. For example, a value of 40 represents 60% growth inhibition. […]
Compounds without any hit were thinned out: in the full panel of roughly 83,000, 20% have a hit. Active and inactive are the calls of the source. The calls were made as follows: active = growth percent below 10; inactive = the rest.
Your response should consist of one outcome taken from true = active, false = inactive

O=c1c2sc3ccccc3c2nnn1-c1ccc(F)c(Cl)c1 : false
CCN(CC)Cc1cc(Nc2ccnc3cc(Cl)ccc23)cc(-c2ccc(Cl)cc2)c1O : false
O=S(=O)(NCC[C@@H]1C[C@H]1c1ccc2ccccc2c1)c1ccc(C(F)(F)F)cc1 : false

# input Give the logged outcome of this assay for the following compound: CN(C)c1ccc(/C=N/Nc2nnc3n2N=C(c2ccc(Cl)cc2)CS3)cc1
# output false

# input // next record COC(=O)/C=C/c1cc(OC(C)=O)c2c(c1)[C@@H](C(=O)OC)[C@H](c1ccc(OC(C)=O)c(OC(C)=O)c1)O2
# output false

# input // next record Cc1nc2ccc(Nc3nc(NCCN4CCOCC4)nc(Nc4ccc(F)cc4)n3)cc2n1Cc1ccccc1
# output false

# input // next record CCSc1ccc([C@@H]2[C@@H](N)C(=O)N2c2cc(OC)c(OC)c(OC)c2)cc1
# output false

# input // next record Cc1ccc2nc(CN(CCN(Cc3nc4ccc(C)cc4[nH]3)Cc3nc4ccc(C)cc4[nH]3)Cc3nc4ccc(C)cc4[nH]3)[nH]c2c1
# output true

# input // next record COc1ccc(-n2nc(C(=O)NCC(=O)Nc3nc4cc(OC)ccc4s3)c3ccccc3c2=O)cc1
# output true

# input // next record CNCCCNc1ccnc2cc(Cl)ccc12
# output true

# input // next record COc1cc(/C=C2\C(=O)Nc3ccc(N(C)C)cc32)cc(OC)c1OC
# output true

# input // next record O=C(CN1CCN(c2ccccc2)CC1)N1CCN(c2nnc(-c3ccc(Cl)cc3)c(-c3ccc(Cl)cc3)n2)CC1
# output false

###

Tested on: MDA-MB-231 breast
Assay: NCI-60 one-dose screen, 48 h (100 = growth as untreated, 0 = no growth, -100 = all killed)
Conditions: 10 µM unless noted
About 83,000 compounds went through this panel and 20% of them were active in at least one assay; those are over-represented in the sample as a whole.
Some compounds, each annotated with its measured growth.
# number only, unit % dropped from output

CC(C)CC(NC(=O)OCC1c2ccccc2-c2ccccc21)C(=O)O (configuration not stated) : 103
COc1ccc(NC(=O)/C=C/c2ccc(Cl)c(Cl)c2)cn1 : 95
CCCCCCCCCCC(C(O)c1ccccc1)N1CCCCC1 (configuration not stated) : 9.66
CCCCn1cnc(-c2cc(-c3ccccc3)cc(C(F)(F)F)c2)n1 : 106
C#CC[C@@H]1C[C@]2(C)[C@H]3CC=C4[C@H]5[C@@H](C)[C@H](C)CC[C@]5(C(=O)NCCCCCCCCN)CC[C@@]4(C)[C@]3(C)CC[C@H]2C(C)(C)[C@H]1OC(C)=O : 56
O=C(O)c1cn(-c2ccccc2)nc1-c1ccc(O)cc1 : 95.7
Cc1ccc(N=CNN=C(N)N)cc1 : 118
COCCCNCC(=O)Nc1c(C)cccc1C : 96.6

# input Look up growth with MDA-MB-231 breast for this compound: FC1(F)CCN(Cc2c[nH]c3cc(Cl)ccc23)C[C@H]1CCc1ccccc1
# output 68.9

# input // next record O=C(/C=C/c1cn(-c2ccccc2)nc1-c1cccc(Nc2ccnc3cc(Cl)ccc23)c1)c1ccc2c(c1)OCO2
# output 72.7

# input // next record CCN(CC)Cc1cc(Nc2ccnc3cc(Cl)ccc23)cc(-c2ccc(Cl)cc2)c1O
# output 48.7

# input // next record CN1CCN(Cc2ccc(NC(=O)c3cncc(C#Cc4ccc(N)nc4)c3)cc2C(F)(F)F)CC1
# output -46.3

# input // next record Fc1cnccc1-c1nc2ccc3[nH]ncc3c2c2c1CCCC2
# output 51.2

# input // next record CC1(C)CC[C@]2(C(=O)N3CCNCC3)CC[C@]3(C)C(=CC[C@@H]4[C@@]5(C)CCC(=O)C(C)(C)[C@@H]5CC[C@]43C)[C@@H]2C1
# output 112

# input // next record COc1ccc2nc(C)cc(Nc3ccccc3O)c2c1
# output 9.5

# input // next record CCN(CC)CCCCCCCNc1cc(OC)cc2c(C)ccnc12
# output 54.1

# input // next record CCOc1c(C#N)c2c(N)ncnc2n1C1OC(CO)C(O)C1O (configuration not stated)
# output 87.1

# input // next record CCOc1cccc(/C=N/NC(=O)Cc2ccc(Nc3ccnc(C(F)(F)F)c3)cc2)c1O
# output 26.8

# input // next record CCN(CC)C(Cl)=Nc1ccc(Cl)cc1
# output 102

# input // next record CCOC(=O)C(=CNc1ccccc1Cl)C(=O)OCC
# output 104

# input // next record COc1ccc(/C(=C\c2cc(OC)c(OC)c(OC)c2)C(=O)N2CCN(c3ccccc3)CC2)cc1O
# output 95.1

# input // next record COc1cc(Nc2ccnc3ccc(Br)cc23)cc(OC)c1OC
# output 38

# input // next record O=[N+]([O-])c1ccccc1CN1CCCCC1
# output 105

# input // next record O=C(CS)OCC(COC(=O)CS)(COC(=O)CS)COC(=O)CS
# output 104

# input // next record OC(c1cc2cc(Cl)ccc2c2cc(C(F)(F)F)ccc12)C1CCCCN1 (configuration not stated)
# output -68

# input // next record COc1ccc(/C(=C\c2cc(OC)c(OC)c(OC)c2)C(=O)N2CCCNCC2)cc1
# output 94

# input // next record CCSc1ccc([C@@H]2[C@@H](O)C(=O)N2c2cc(OC)c(OC)c(OC)c2)cc1
# output 23.6

# credit: PubChem BioAssay (NCI)
